Every entry's value here was drawn from ChEMBL document CHEMBL1132107.

Listing of entries alongside the reported pIC50.
- System: HepG2
- experimentalProtocol: Cytotoxicity expressed as the concentration that inhibited incorporation of [3H]thymidine into cellular DNA of human hepatocellular cells (HepG2)
- Format: functional, cell-based
FYI, pIC50 means -log10 of a concentration in mol per litre.

Record excerpt, results attached:
CC[C@@]1(O)C(=O)OCc2c1cc1n(c2=O)Cc2cc3c(NC(=O)OCc4ccc(O[C@@H]5O[C@H](C(=O)O)[C@@H](O)[C@H](O)[C@H]5O)cc4)cccc3nc2-1; 6.96
CC[C@@]1(O)C(=O)OCc2c1cc1n(c2=O)Cc2cc3ccccc3nc2-1 [CAMPTOTHECIN]; 8.20

Now, please, on to the next compound.
response.value for CC[C@@]1(O)C(=O)OCc2c1cc1n(c2=O)Cc2cc3c(N)cccc3nc2-1 [9-AMINOCAMPTOTHECIN] (field: pIC50) = 8.46

====

- Test system: COLO 205
- experimentalProtocol: Cytotoxicity expressed as the concentration that inhibited incorporation of [3H]thymidine into cellular DNA of human colorectal cells (COLO 205)
- Type: functional, cell-based
- conditionsUsed: colo 205
measuredQuantity: pIC50
FYI, pIC50 means -log10 of a concentration in mol per litre.

CC[C@@]1(O)C(=O)OCc2c1cc1n(c2=O)Cc2cc3c(NC(=O)OCc4ccc(O[C@@H]5O[C@H](C(=O)[O-])[C@@H](O)[C@H](O)[C@H]5O)cc4)cccc3nc2-1.[K+]; 6.34

Now, please, on to the next compound.
Entry CC[C@@]1(O)C(=O)OCc2c1cc1n(c2=O)Cc2cc3c(NC(=O)OCc4ccc(O[C@@H]5O[C@H](C(=O)O)[C@@H](O)[C@H](O)[C@H]5O)cc4)cccc3nc2-1 under COLO 205 had pIC50 of 6.70

====

Listing of entries alongside the reported pIC50.
- experimentalProtocol: Cytotoxicity expressed as the concentration that inhibited incorporation of [3H]thymidine into cellular DNA of human cervical cells (CaSki)
- Format: functional, cell-based
- conditionsUsed: Homo sapiens
FYI, pIC50 means -log10 of a concentration in mol per litre.

response.value for CC[C@@]1(O)C(=O)OCc2c1cc1n(c2=O)Cc2cc3ccccc3nc2-1 [CAMPTOTHECIN] (field: pIC50) = 8.07

response.value for CC[C@@]1(O)C(=O)OCc2c1cc1n(c2=O)Cc2cc3c(N)cccc3nc2-1 [9-AMINOCAMPTOTHECIN] (field: pIC50) = 8.07
